- EXPERIMENTAL PROTOCOL: in vitro
- Format: cell-based, Trypanosoma brucei
- EXPERIMENTAL SETUP: 427, rat
QUANTITY KIND: selectivity ratio
Lab note: write the figure by itself, no unit.

## Task Name the recorded selectivity ratio of the compound listed here: CC1=CC2Cc3nc4cc(Cl)ccc4c(N)c3C(C1)C2 (stereo not shown)
## Result 12.8

----------
# key: entry, value: IC90
- Tested on: bloodstream form T. brucei
- EXPERIMENTAL PROTOCOL: microbe, parasite or virus in culture
- Type: cell-based, Trypanosoma brucei
- EXPERIMENTAL SETUP: Trypanosoma brucei; bloodstream form T. brucei, pH 7.4, 48 h growth; concentration inhibiting growth by 90%; mean of triplicate ± SEM; read-out: T. brucei IC90
Write it as a number; the unit nM goes unstated.

COMPOUND	QUANTITY KIND	QUANTITATIVE RESULT
C=CCC1=CC2Cc3nc4ccccc4c(N)c3C(C1)C2 (stereo not shown)	IC90	8520
CC1=CC2Cc3nc4cc(Cl)ccc4c(N)c3C(C1)C2 (stereo not shown)	IC90	2940
CCC1=CC2Cc3nc4cc(Cl)ccc4c(N)c3[C@@H](C1)C2	IC90	1760

Here is another compound to look at.
## Task Name the recorded IC90 of the compound listed here: C=CCC1=CC2Cc3nc4cc(Cl)ccc4c(N)c3C(C1)C2 (stereo not shown)
## Result 2870

----------
- Tested on: bloodstream form T. brucei
- EXPERIMENTAL PROTOCOL: microbe, parasite or virus in culture
- Assay type: cell-based, Trypanosoma brucei
- EXPERIMENTAL SETUP: bloodstream form T. brucei, pH 7.4, 48 h growth; mean of triplicate experiments ± SEM; read-out: T. brucei IC50
# key: entry, value: pIC50
Keep it numeric: pIC50 is minus log10 of the concentration in mol/L.

Below are worked cases with known answers.
COMPOUND	QUANTITY KIND	QUANTITATIVE RESULT
CC(C)C1=CC2Cc3nc4cccc(F)c4c(N)c3C(C1)C2 (stereo not shown)	pIC50	5.59
CCC1=CC2Cc3nc4cccc(Cl)c4c(N)c3C(C1)C2 (stereo not shown)	pIC50	5.87
CCC1=CC2Cc3nc4cccc(C)c4c(N)c3C(C1)C2 (stereo not shown)	pIC50	5.28
CCC1=CC2Cc3nc4ccccc4c(N)c3C(C1)C2 (stereo not shown)	pIC50	5.89
CC1=CC2Cc3nc4cc(C)ccc4c(N)c3C(C1)C2 (stereo not shown)	pIC50	5.98

## Task Name the recorded pIC50 of the compound listed here: CC(C)(C)C1=CC2Cc3nc4ccccc4c(N)c3C(C1)C2 (stereo not shown)
## Result 6.06

## Task Name the recorded pIC50 of the compound listed here: CC(C)C1=CC2Cc3nc4cc(Cl)ccc4c(N)c3C(C1)C2 (stereo not shown)
## Result 5.61
